studyTarget: T1, extracellular-domain-(ECD)-comprising fragment of human CDCP1 of SEQ ID NO: 30 (human, UniProt Q9H5V8 30-663)
T1 construct: also called CDCP1 ECD; CDCP1-ECD
T1 sequence: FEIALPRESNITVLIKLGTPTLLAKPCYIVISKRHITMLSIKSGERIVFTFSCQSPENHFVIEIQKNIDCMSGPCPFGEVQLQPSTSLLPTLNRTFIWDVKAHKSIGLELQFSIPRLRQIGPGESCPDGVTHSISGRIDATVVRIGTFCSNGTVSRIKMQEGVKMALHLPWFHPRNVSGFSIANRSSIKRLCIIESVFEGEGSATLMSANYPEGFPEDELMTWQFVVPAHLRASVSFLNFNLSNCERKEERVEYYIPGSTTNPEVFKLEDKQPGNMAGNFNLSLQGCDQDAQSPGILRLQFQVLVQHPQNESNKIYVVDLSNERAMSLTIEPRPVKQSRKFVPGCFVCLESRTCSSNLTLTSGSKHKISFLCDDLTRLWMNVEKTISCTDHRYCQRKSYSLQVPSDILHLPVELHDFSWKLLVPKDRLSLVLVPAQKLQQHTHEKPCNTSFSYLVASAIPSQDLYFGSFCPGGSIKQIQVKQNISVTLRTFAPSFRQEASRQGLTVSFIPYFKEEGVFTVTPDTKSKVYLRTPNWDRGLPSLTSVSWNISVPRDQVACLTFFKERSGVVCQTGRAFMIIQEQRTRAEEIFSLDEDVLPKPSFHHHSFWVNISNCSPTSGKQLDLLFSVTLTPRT
experimentDescription: SPR (Biacore T100), antibody captured, CDCP1 ECD as analyte, 25 C, Langmuir 1:1
Experimental: After conjugation, different anti-CDCP1 antibodies were injected at 25° C. at a flow rate of 5 μL/min, followed by a dilution series (0 nM to 1000 nM) of CDCP1 ECD at 30 μL/min. As running buffer for the binding experiment PBS/0.1% BSA was used. The chip was then regenerated with a 60s pulse of 10 mM glycine-HCl, pH 2.0 solution. Calculation of thermodynamic parameters (KD, binding constant) and kinetic parameters (kₒₙ rate, koff rate) were calculated using a Langmuir 1:1 binding model.
attributeMeasured: t½ diss. (min)

{"binder": "Humanized CUB4 Antibody No. 69 (antibody, IgG1, V domains shown, Human constant region; also called Antibody 69; hHC4-H / hLC-L2) VH: EVQLVESGGGLVQPGGSLRLSCAASGFTFNSYGMSWVRQAPGKGLEWVATISSGGSYKYYVDSVKGRFTISRDNAKNSLYLQMNSLRAEDTAVYYCARHPDYDGVWFAYWGQGTLVTVSS VL: EIVLTQSPATLSLSPGERATMSCSVSSSVFYLHWYQQKPGQAPRLWIYDTSKLASGIPARFSGSGSGTDFTLTISSLEPEDFAVYYCQQWNSNPPTFGGGTKVEIK", "endpointValue": 22.1}
{"binder": "Humanized CUB4 Antibody No. 91 (antibody, IgG1, V domains shown, Only variable domains are tied to the antibody; Human constant region, preferably IgG1; also called hHC4-H / hLC-a) VH: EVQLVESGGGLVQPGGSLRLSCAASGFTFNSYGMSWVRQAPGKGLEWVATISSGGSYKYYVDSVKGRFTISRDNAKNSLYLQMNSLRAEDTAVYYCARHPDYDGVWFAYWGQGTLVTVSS VL: EIVLTQSPATLSLSPGERATLSCSVSSSVFYVHWYQQKPGQAPRLLIYDTSKLASGIPARFSGSGSGTDFTLTISSLEPEDFAVYYCQQWNSNPPTFGGGTKVEIK", "endpointValue": 11.2}
{"binder": "Humanized CUB4 Antibody No. 80 (antibody, IgG1, V domains shown, Only variable domains are tied to the antibody; Human constant region, preferably IgG1; also called hHC4-H / hLC-M) VH: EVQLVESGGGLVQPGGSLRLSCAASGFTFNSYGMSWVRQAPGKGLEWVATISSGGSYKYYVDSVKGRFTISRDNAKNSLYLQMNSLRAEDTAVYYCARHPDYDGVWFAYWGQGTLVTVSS VL: EIVLTQSPATLSLSPGERATMSCGASSSVFYLHWYQQKPGLAPRLWIYDTSKLASGIPDRFSGSGSGTDFTLTISRLEPEDFAVYYCQQWNSNPPTFGGGTKVEIK", "endpointValue": 13.1}
